Test system: anti-CD28 scFv
experiment_summary: Phage binding ELISA (panning) of clonal phage on anti-CD28 scFv, with or without CD28 soluble protein
reported_conditions: clonal phage supernatant on captured biotinylated anti-CD28 scFv; blocking buffer alone
readout_name: Phage binding ELISA CD28 scFv signal
Respond using a number only.

Prompt line: Query for anti-CD28 scFv: what Phage binding ELISA CD28 scFv signal does the record show for Phage-49 (MSWCPIHLWNECFN) ?
Response line: 2.057

Prompt line: Query for anti-CD28 scFv: what Phage binding ELISA CD28 scFv signal does the record show for Phage-55 (QDWCPRHMWSFCFH) ?
Response line: 0.074

Prompt line: Query for anti-CD28 scFv: what Phage binding ELISA CD28 scFv signal does the record show for Phage-74 (MDWCPRDMWLFCYN) ?
Response line: 2.707

Prompt line: Query for anti-CD28 scFv: what Phage binding ELISA CD28 scFv signal does the record show for Phage-82 (MDWCPRDLWTECFA) ?
Response line: 2.634

Prompt line: Query for anti-CD28 scFv: what Phage binding ELISA CD28 scFv signal does the record show for Phage-78 (MDWCPRHLWHECFN) ?
Response line: 2.654

Prompt line: Query for anti-CD28 scFv: what Phage binding ELISA CD28 scFv signal does the record show for Phage-43 (MDWCPRALWHECFY) ?
Response line: 2.499

Prompt line: Query for anti-CD28 scFv: what Phage binding ELISA CD28 scFv signal does the record show for Phage-46 (MHWCPIDLWAECYA) ?
Response line: 2.278

Prompt line: Query for anti-CD28 scFv: what Phage binding ELISA CD28 scFv signal does the record show for Phage-67 (MNWCPTALWHVCFN) ?
Response line: 1.644

Prompt line: Query for anti-CD28 scFv: what Phage binding ELISA CD28 scFv signal does the record show for Phage-60 (MDWCPRTLWYLCFN) ?
Response line: 2.593

Prompt line: Query for anti-CD28 scFv: what Phage binding ELISA CD28 scFv signal does the record show for Phage-84 (MDWCPKYLWSVCFF) ?
Response line: 2.622

Prompt line: Query for anti-CD28 scFv: what Phage binding ELISA CD28 scFv signal does the record show for Phage-77 (MDWCPFYLWDECFN) ?
Response line: 2.672

----------
Items are presented alongside their recorded kdis.
System: anti-CD28 scFv (SEQ ID NO: 9)
experiment_summary: Octet bio-layer interferometry kinetic binding of anti-CD28 scFv to peptides
Design: species or system human
reported_conditions: Octet RED96; biotinylated peptide loaded on streptavidin biosensor; anti-CD28 scFv in solution; 1:1 binding model
Param answer (str): number followed by unit.

[[record]]
compound = "CSCC[C@H](N)C(=O)N[C@@H](CC(=O)O)C(=O)N[C@@H](Cc1c[nH]c2ccccc12)C(=O)N[C@H]1CSSC[C@@H](C(=O)N[C@@H](Cc2ccccc2)C(=O)N[C@@H](C)C(=O)O)NC(=O)[C@H](CCC(=O)O)NC(=O)[C@H](Cc2c[nH]cn2)NC(=O)[C@H](Cc2c[nH]c3ccccc23)NC(=O)[C@H](CC(C)C)NC(=O)[C@H](CC(=O)O)NC(=O)[C@H](CCCNC(=N)N)NC(=O)[C@@H]2CCCN2C1=O [Peptide-38]"
assay_value = "0.00277 s⁻¹"


Prompt line: Query for anti-CD28 scFv (SEQ ID NO: 9): what kdis does the record show for CSCC[C@H](N)C(=O)N[C@@H](CC(=O)O)C(=O)N[C@@H](Cc1c[nH]c2ccccc12)C(=O)N[C@H]1CSSC[C@@H](C(=O)N[C@@H](Cc2ccccc2)C(=O)N[C@@H](CC(N)=O)C(=O)O)NC(=O)[C@H](CCC(=O)O)NC(=O)[C@H](CC(N)=O)NC(=O)[C@H](Cc2c[nH]c3ccccc23)NC(=O)[C@H](CC(C)C)NC(=O)[C@H](Cc2ccc(O)cc2)NC(=O)[C@H](CC(C)C)NC(=O)[C@@H]2CCCN2C1=O [Peptide-36] ?
Response line: 0.00252 s⁻¹

Prompt line: Query for anti-CD28 scFv (SEQ ID NO: 9): what kdis does the record show for CSCC[C@H](N)C(=O)N[C@@H](CC(=O)O)C(=O)N[C@@H](Cc1c[nH]c2ccccc12)C(=O)N[C@H]1CSSC[C@@H](C(=O)N[C@@H](Cc2ccccc2)C(=O)N[C@@H](C)C(=O)O)NC(=O)[C@H](CCC(=O)O)NC(=O)[C@H](Cc2c[nH]cn2)NC(=O)[C@H](Cc2c[nH]c3ccccc23)NC(=O)[C@H](CC(C)C)NC(=O)[C@H](CO)NC(=O)[C@H](CCCNC(=N)N)NC(=O)[C@@H]2CCCN2C1=O [Peptide-47] ?
Response line: 0.00201 s⁻¹

Prompt line: Query for anti-CD28 scFv (SEQ ID NO: 9): what kdis does the record show for CSCC[C@H](N)C(=O)N[C@@H](CC(=O)O)C(=O)N[C@@H](Cc1c[nH]c2ccccc12)C(=O)N[C@H]1CSSC[C@@H](C(=O)N[C@@H](Cc2ccccc2)C(=O)N[C@@H](Cc2ccccc2)C(=O)O)NC(=O)[C@H](CCC(=O)O)NC(=O)[C@H](CO)NC(=O)[C@H](Cc2c[nH]c3ccccc23)NC(=O)[C@H](CC(C)C)NC(=O)[C@H](CC(=O)O)NC(=O)[C@H](CCCNC(=N)N)NC(=O)[C@@H]2CCCN2C1=O [Peptide-40] ?
Response line: 0.0031 s⁻¹

----------
Test system: anti-CD28 scFv
experiment_summary: Phage binding ELISA (panning) of clonal phage on anti-CD28 scFv, with or without CD28 soluble protein
reported_conditions: clonal phage supernatant on captured anti-CD28 scFv pre-incubated with CD28 soluble protein
Please note: Criterion met applies when Phage binding ELISA CD28 scFv signal in presence of CD28 is 0.3 or greater, and Criterion not met applies otherwise.

[[record]]
substance = "Phage-60 (MDWCPRTLWYLCFN)"
assigned_label = "Criterion met"

[[record]]
substance = "Phage-44 (MDWCPIALWAECFN)"
assigned_label = "Criterion not met"

[[record]]
substance = "Phage-49 (MSWCPIHLWNECFN)"
assigned_label = "Criterion not met"

[[record]]
substance = "Phage-43 (MDWCPRALWHECFY)"
assigned_label = "Criterion not met"


Prompt line: Reported Phage binding ELISA CD28 scFv signal in presence of CD28 at or above 0.3? Phage-58 (MHWCPIDRWADCFN)
Response line: Criterion not met

----------
Tested on: anti-CD28 scFv
experiment_summary: Phage binding ELISA (panning) of clonal phage on anti-CD28 scFv, with or without CD28 soluble protein
reported_conditions: clonal phage supernatant; background signal
Please note: yes applies when Phage binding ELISA Backgroud signal is 0.07 or greater, and no applies otherwise.

[[record]]
substance = "Phage-84 (MDWCPKYLWSVCFF)"
assigned_label = "yes"

[[record]]
substance = "Phage-339 (MDWCPRTLWDQCFF)"
assigned_label = "yes"

[[record]]
substance = "Phage-352 (MDWCPIHLWYECFN)"
assigned_label = "yes"

[[record]]
substance = "Phage-324 (MDWCPRHLWYECFS)"
assigned_label = "yes"

[[record]]
substance = "Phage-331 (MDWCPRHLWDECFY)"
assigned_label = "yes"


Prompt line: Reported Phage binding ELISA Backgroud signal at or above 0.07? Phage-223 (MDWCPRDRWVDCFF)
Response line: no

Prompt line: Reported Phage binding ELISA Backgroud signal at or above 0.07? Phage-55 (QDWCPRHMWSFCFH)
Response line: yes

Prompt line: Reported Phage binding ELISA Backgroud signal at or above 0.07? Phage-189 (VDWCPRYLWHVCYN)
Response line: no

----------
Items are presented alongside their recorded kdis.
Tested on: anti-CD28 scFv (SEQ ID NO: 9)
experiment_summary: Octet bio-layer interferometry kinetic binding of anti-CD28 scFv to peptides
Set-up: species or system human
reported_conditions: Octet RED96; biotinylated peptide loaded on streptavidin biosensor; anti-CD28 scFv in solution; 1:1 binding model
Your answer is read as s⁻¹, so omit the unit and give the number.

Reference set, count: 2
[[record]]
molecule = "CSCC[C@H](N)C(=O)N[C@@H](Cc1c[nH]cn1)C(=O)N[C@@H](Cc1c[nH]c2ccccc12)C(=O)N[C@H]1CSSC[C@@H](C(=O)N[C@@H](Cc2ccc(O)cc2)C(=O)N[C@@H](CC(N)=O)C(=O)O)NC(=O)[C@H](CC(C)C)NC(=O)[C@H](Cc2ccc(O)cc2)NC(=O)[C@H](Cc2c[nH]c3ccccc23)NC(=O)[C@H](CC(C)C)NC(=O)[C@H](CC(=O)O)NC(=O)[C@H](C(C)C)NC(=O)[C@@H]2CCCN2C1=O [Peptide-49]"
target = "anti-CD28 scFv (SEQ ID NO: 9)"
assay_value = 0.00186

[[record]]
molecule = "CSCC[C@@H]1NC(=O)[C@H](Cc2ccccc2)NC(=O)[C@H](CCCNC(=N)N)NC(=O)[C@@H]2CCCN2C(=O)[C@@H](NC(=O)[C@H](Cc2c[nH]c3ccccc23)NC(=O)[C@H](CC(=O)O)NC(=O)[C@@H](N)CCSC)CSSC[C@@H](C(=O)N[C@@H](Cc2ccccc2)C(=O)N[C@@H](CC(N)=O)C(=O)O)NC(=O)[C@H](CCC(=O)O)NC(=O)[C@H](CC(=O)O)NC(=O)[C@H](Cc2c[nH]c3ccccc23)NC1=O [Peptide-45]"
target = "anti-CD28 scFv (SEQ ID NO: 9)"
assay_value = 0.00364


Prompt line: Which kdis value belongs to CC[C@H](C)[C@@H]1NC(=O)[C@@H]2CCCN2C(=O)[C@@H](NC(=O)[C@H](Cc2c[nH]c3ccccc23)NC(=O)[C@H](CC(=O)O)NC(=O)[C@@H](N)CCSC)CSSC[C@@H](C(=O)N[C@@H](Cc2ccccc2)C(=O)N[C@@H](CC(N)=O)C(=O)O)NC(=O)[C@H](C(C)C)NC(=O)[C@H](Cc2c[nH]cn2)NC(=O)[C@H](Cc2c[nH]c3ccccc23)NC(=O)[C@H](CC(C)C)NC(=O)[C@H](Cc2c[nH]cn2)NC1=O [Peptide-32] ?
Response line: 0.00295
